Assay: Folding and unfolding kinetics (Chevron plot, stopped-flow CD, GuHCl)
Type: physicochemical
Conditions: folding rate constant extrapolated to 0M GuHCl, global Chevron fit
Assay readout: kf (s⁻¹)
Numbers only, in s⁻¹.

SYM5/ΔΔ: SYM5 FGF-1 mutant plus both Δ104-106 and Δ120-122 deletion mutations (protein, UniProt P05230 16-155, looked up, variant L44F L73V V109L L111I C117V A103G del104-106 R119G del120-122) Fibroblast growth factor 1: FNLPPGNYKKPKLLYCSNGGHFLRILPDGTVDGTRDRSDQHIQFQLSAESVGEVYIKSTETGQYLAMDTDGLVYGSQTPNEECLFLERLEENHYNTYISKKHGWFLGIKKNGSVKGTHYGQKAILFLPLPVSSD ... 40.4
SYM5: FGF-1 core mutant Leu44→Phe/Leu73→Val/Val109→Leu/Leu111→Ile/Cys117→Val (protein, UniProt P05230 16-155, looked up, variant L44F L73V V109L L111I C117V) Fibroblast growth factor 1: FNLPPGNYKKPKLLYCSNGGHFLRILPDGTVDGTRDRSDQHIQFQLSAESVGEVYIKSTETGQYLAMDTDGLVYGSQTPNEECLFLERLEENHYNTYISKKHAEKNWFLGIKKNGSVKRGPRTHYGQKAILFLPLPVSSD ... 2.57
SYM6/ΔΔ: SYM6 FGF-1 mutant plus both Δ104-106 and Δ120-122 deletion mutations, SEQ ID NO: 1 (protein, Human FGF-1 mutant SYM6DD) FNLPPGNYKKPKLLYCSNGGHFLRILPDGTVDGTRDRSDQHIQFQLSAESVGEVYIKSTETGQYLAIDTDGLVYGSQTPNEECLFLERLEENHYNTYISKKHGWFLGIKKNGSVKGTHYGQKAILFLPLPVSSD ... 74.0

Continue with the molecule presented below.
Asked: Which value of kf has been reported for SYM6/Δ120-122: SYM6 FGF-1 mutant plus Arg119→Gly/ΔGly120/ΔPro121/ΔArg122 (protein, UniProt P05230 16-155, looked up, variant L44F M67I L73V V109L L111I C117V R119G del120-122) Fibroblast growth factor 1: FNLPPGNYKKPKLLYCSNGGHFLRILPDGTVDGTRDRSDQHIQFQLSAESVGEVYIKSTETGQYLAIDTDGLVYGSQTPNEECLFLERLEENHYNTYISKKHAEKNWFLGIKKNGSVKGTHYGQKAILFLPLPVSSD in the records?
Given back: 17.3
